Test system: RARg:RXRa (NR concentration 270 nM, RXRa partner concentration 90 nM)
ASSAY_PROCEDURE: PBM binding z-score (relative to random genomic background probes); higher = stronger binding; sequences stand for … in GC…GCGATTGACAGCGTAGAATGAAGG
Output yes for PBM binding z-score not less than 0.5; output no otherwise.

Problem: Would you say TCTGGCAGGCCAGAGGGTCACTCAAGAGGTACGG shows PBM binding z-score at minimum 0.5?
Solution: yes

Problem: Would you say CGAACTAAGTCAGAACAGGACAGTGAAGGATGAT shows PBM binding z-score at minimum 0.5?
Solution: no

Problem: Would you say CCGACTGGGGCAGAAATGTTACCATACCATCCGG shows PBM binding z-score at minimum 0.5?
Solution: no

Problem: Would you say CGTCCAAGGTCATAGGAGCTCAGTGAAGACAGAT shows PBM binding z-score at minimum 0.5?
Solution: yes

Problem: Would you say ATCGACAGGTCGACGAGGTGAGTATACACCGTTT shows PBM binding z-score at minimum 0.5?
Solution: yes

---
Problem: Would you say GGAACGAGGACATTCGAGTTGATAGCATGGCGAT shows PBM binding z-score at minimum 0.5?
Solution: no

Problem: Would you say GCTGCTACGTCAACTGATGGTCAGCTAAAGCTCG shows PBM binding z-score at minimum 0.5?
Solution: no

Problem: Would you say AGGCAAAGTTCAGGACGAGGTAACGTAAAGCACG shows PBM binding z-score at minimum 0.5?
Solution: yes

Problem: Would you say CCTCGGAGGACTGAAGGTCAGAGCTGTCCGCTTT shows PBM binding z-score at minimum 0.5?
Solution: yes

Problem: Would you say GTACCAAGGGGAATAGGTCGTTGATGAGTAGGCG shows PBM binding z-score at minimum 0.5?
Solution: yes

Problem: Would you say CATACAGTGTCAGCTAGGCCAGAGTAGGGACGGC shows PBM binding z-score at minimum 0.5?
Solution: no
